- Target or system: interaction between HDM2 and p53 (GST-hMDM2 / biotinylated-p53) (Homo sapiens (Human))
- Sequence (Q00987 1-188): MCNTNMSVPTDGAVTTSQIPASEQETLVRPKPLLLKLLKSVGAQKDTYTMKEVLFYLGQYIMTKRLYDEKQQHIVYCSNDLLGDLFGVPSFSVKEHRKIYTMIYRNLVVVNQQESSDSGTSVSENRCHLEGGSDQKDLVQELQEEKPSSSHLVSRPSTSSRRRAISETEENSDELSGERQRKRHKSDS
- Condition details: read-out: HTRF3 IC50; HTRF1 conditions except 20 uL GST-hMDM2 incubated with 1.0 ul diluted compound
Would you mind telling me the reported IC50 of each entry?
Give bare numbers, in µM.

Sample smiles | IC50 / µM
CCC[C@H](C(=O)N1CCN(CCC(=O)O)CC1)N1C(=O)CO[C@@H](c2ccc(Cl)cc2)[C@H]1c1ccc(Cl)cc1 | 4.59
CN1C(=O)[C@@H](Cc2cccc(C(N)=O)c2)O[C@H](c2ccc(Cl)cc2)[C@@H]1c1ccc(Cl)cc1 | 12.4
CCC[C@H](c1nnn[nH]1)N1C(=O)[C@H](Cc2ccc(C#N)c(F)c2)O[C@@H](c2ccc(Cl)cc2)[C@H]1c1ccc(Cl)cc1 | 0.403

Give me IC50 for each of these compounds, listed below.
1. CN(C)C(=O)C[C@H]1O[C@H](c2cccc(Cl)c2)[C@H](c2ccc(Cl)cc2)N(CC2CC2)C1=O
2. CN1C(=O)[C@@H](Cc2ccc(C(N)=O)cc2)O[C@H](c2ccc(Cl)cc2)[C@@H]1c1ccc(Cl)cc1
3. CS(=O)(=O)OCC[C@H]1O[C@H](c2cccc(Cl)c2)[C@H](c2ccc(Cl)cc2)N(CC2CC2)C1=O

Result:
1. 2.78
2. 5.8
3. 6.86
